test system: A549; assay: Antiproliferative activity against human A549 cells after 48 hrs by MTT assay; assay type: functional, cell-based; details: A549, 48 h
parameter-measured: pIC50
// returns pIC50 (minus log10 of molar concentration), number only

Entry `COc1ccc(-c2cc(COC(=O)COc3cc(O)c4c(=O)cc(-c5ccccc5)oc4c3)nn2-c2ccc(C)cc2)cc1` , pIC50 reported as 5.19

Entry `Cc1ccc(-c2cc(COC(=O)COc3cc(O)c4c(=O)cc(-c5ccccc5)oc4c3)nn2-c2ccc(Cl)cc2)cc1` , pIC50 reported as 5.33

Entry `COc1ccc(-c2cc(COC(=O)COc3cc(O)c4c(=O)cc(-c5ccccc5)oc4c3)nn2-c2ccccc2)cc1` , pIC50 reported as 4.98

Entry `Cc1ccc(-n2nc(COC(=O)COc3cc(O)c4c(=O)cc(-c5ccccc5)oc4c3)cc2-c2ccc([N+](=O)[O-])cc2)cc1` , pIC50 reported as 5.23

###

tested on: A549; experiment: Antiproliferative activity against human A549 cells after 48 hrs by MTT assay; assay type: functional, cell-based; conditions: A549, 48 h
Would you kindly list IC50 for each of these compounds?
Respond with the bare value in µM.

Entry `O=C(COc1cc(O)c2c(=O)cc(-c3ccccc3)oc2c1)OCc1cc(-c2ccc(F)cc2)n(-c2ccccc2)n1` , IC50 reported as 12

Entry `O=C(COc1cc(O)c2c(=O)cc(-c3ccccc3)oc2c1)OCc1cc(-c2cccc(Cl)c2)n(-c2ccccc2)n1` , IC50 reported as 4.71

Entry `O=C(COc1cc(O)c2c(=O)cc(-c3ccccc3)oc2c1)OCc1cc(-c2cccc(F)c2)n(-c2ccccc2)n1` , IC50 reported as 40.2

Entry `Cc1ccc(-n2nc(COC(=O)COc3cc(O)c4c(=O)cc(-c5ccccc5)oc4c3)cc2-c2ccc(Br)cc2)cc1` , IC50 reported as 22.7

Entry `COc1ccc(-c2cc(COC(=O)COc3cc(O)c4c(=O)cc(-c5ccccc5)oc4c3)nn2-c2ccc(Cl)cc2)cc1` , IC50 reported as 12.7

Entry `O=C(COc1cc(O)c2c(=O)cc(-c3ccccc3)oc2c1)OCc1cc(-c2cccc(C(F)(F)F)c2)n(-c2ccccc2)n1` , IC50 reported as 6.68

Entry `O=C(COc1cc(O)c2c(=O)cc(-c3ccccc3)oc2c1)OCc1cc(-c2ccc(C(F)(F)F)cc2)n(-c2ccccc2)n1` , IC50 reported as 8.02

###

species: Homo sapiens; test: Selectivity index, ratio of IC50 for COX1 (unknown origin) to ratio of IC50 for COX2 (unknown origin)
Labelling: Ratio IC50 reported below 30 becomes Fulfilled; at or above becomes Not fulfilled.

Field: below-cutoff. Rule: recorded Ratio IC50 strictly less than 30. Subject: `O=C(COc1cc(O)c2c(=O)cc(-c3ccccc3)oc2c1)OCc1cc(-c2cccc(C(F)(F)F)c2)n(-c2ccccc2)n1`
Fulfilled

Field: below-cutoff. Rule: recorded Ratio IC50 strictly less than 30. Subject: `Cc1ccc(-c2cc(COC(=O)COc3cc(O)c4c(=O)cc(-c5ccccc5)oc4c3)nn2-c2ccccc2)cc1`
Not fulfilled

Field: below-cutoff. Rule: recorded Ratio IC50 strictly less than 30. Subject: `O=C(COc1cc(O)c2c(=O)cc(-c3ccccc3)oc2c1)OCc1cc(-c2ccc([N+](=O)[O-])cc2)n(-c2ccccc2)n1`
Fulfilled

Field: below-cutoff. Rule: recorded Ratio IC50 strictly less than 30. Subject: `Cc1cccc(-c2cc(COC(=O)COc3cc(O)c4c(=O)cc(-c5ccccc5)oc4c3)nn2-c2ccccc2)c1`
Fulfilled

Field: below-cutoff. Rule: recorded Ratio IC50 strictly less than 30. Subject: `Cc1ccc(-n2nc(COC(=O)COc3cc(O)c4c(=O)cc(-c5ccccc5)oc4c3)cc2-c2cccc(C)c2)cc1`
Fulfilled

Field: below-cutoff. Rule: recorded Ratio IC50 strictly less than 30. Subject: `Cc1ccc(-n2nc(COC(=O)COc3cc(O)c4c(=O)cc(-c5ccccc5)oc4c3)cc2-c2ccc([N+](=O)[O-])cc2)cc1`
Not fulfilled
